ASSAY_EXPLANATION: Unit input response, intravenous bolus plasma concentration
Type: in vivo
CONDITION_PARAMETERS: human, 34.96 days, read-out: Plasma Concentration of API A

{"columns": ["SMILES_INPUT", "UNIT_LABEL", "concentration at 34.96 days"],
 "data": [
  ["CC(C)(C#Cc1ccc(-c2ccc(Cl)c3c(NS(C)(=O)=O)nn(CC(F)(F)F)c23)c([C@H](Cc2cc(F)cc(F)c2)NC(=O)Cn2nc(C(F)(F)F)c3c2C(F)(F)[C@@H]2C[C@H]32)n1)S(C)(=O)=O", "ng/mL", 0.71]
]}

###

ASSAY_EXPLANATION: Unit input response, intravenous bolus plasma concentration
Type: in vivo
CONDITION_PARAMETERS: human, 0.50 days, read-out: Plasma Concentration of API A

{"columns": ["MOLECULE", "concentration at 0.5 days [ng/mL]"],
 "data": [
  ["CC(C)(C#Cc1ccc(-c2ccc(Cl)c3c(NS(C)(=O)=O)nn(CC(F)(F)F)c23)c([C@H](Cc2cc(F)cc(F)c2)NC(=O)Cn2nc(C(F)(F)F)c3c2C(F)(F)[C@@H]2C[C@H]32)n1)S(C)(=O)=O [API A, Lenacapavir]", 4.68]
]}

Cited source for all entries: patent US20250354970A1
